Source: patent US20250215072A1

Biological target: T1, human GARP-proTGFβ1 complex (human, UniProt P01137 30-390; Q14392 20-627)
T1 construct: also called hGARP-proTGFβ1; hGARP
T1 sequence (P01137 30-390, chain 1 of 2): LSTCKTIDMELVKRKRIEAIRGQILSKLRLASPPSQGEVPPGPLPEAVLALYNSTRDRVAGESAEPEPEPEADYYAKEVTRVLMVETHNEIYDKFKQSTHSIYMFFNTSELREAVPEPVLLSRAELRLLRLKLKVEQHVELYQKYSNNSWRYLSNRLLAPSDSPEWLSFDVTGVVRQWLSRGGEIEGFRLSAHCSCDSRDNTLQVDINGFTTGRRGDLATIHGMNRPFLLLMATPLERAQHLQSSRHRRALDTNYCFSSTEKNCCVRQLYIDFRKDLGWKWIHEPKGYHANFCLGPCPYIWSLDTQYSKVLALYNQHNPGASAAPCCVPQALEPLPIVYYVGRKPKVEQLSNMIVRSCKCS
T1 sequence (Q14392 20-627, chain 2 of 2): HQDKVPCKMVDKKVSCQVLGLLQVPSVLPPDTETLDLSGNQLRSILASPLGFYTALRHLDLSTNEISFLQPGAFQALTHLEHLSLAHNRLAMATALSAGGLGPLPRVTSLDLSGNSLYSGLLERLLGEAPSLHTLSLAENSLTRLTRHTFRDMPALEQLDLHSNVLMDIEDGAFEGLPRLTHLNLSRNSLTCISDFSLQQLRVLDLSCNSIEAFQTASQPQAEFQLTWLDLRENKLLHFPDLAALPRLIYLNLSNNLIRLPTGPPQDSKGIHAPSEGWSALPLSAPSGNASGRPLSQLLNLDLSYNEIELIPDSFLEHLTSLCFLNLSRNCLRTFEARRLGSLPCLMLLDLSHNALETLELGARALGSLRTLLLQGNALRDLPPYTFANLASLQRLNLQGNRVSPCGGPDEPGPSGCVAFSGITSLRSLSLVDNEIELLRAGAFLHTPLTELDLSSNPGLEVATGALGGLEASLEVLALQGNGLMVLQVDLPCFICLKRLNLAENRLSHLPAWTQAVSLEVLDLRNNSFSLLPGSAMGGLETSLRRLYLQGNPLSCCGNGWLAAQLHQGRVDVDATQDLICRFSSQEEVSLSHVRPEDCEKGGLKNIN
Assay: BLI (Octet)
pKd: −log10 of the molar value.
Assign Satisfied whenever pKd does not fall below 9; assign Not satisfied whenever it does.

Consider the following illustrative entries.
{"columns": ["BINDER", "LABEL"],
 "data": [
  ["Ab16 (antibody, V domains shown) VH: EVQLLESGGGLVQPGGSLRLSCAASGFTFSNYAMSWVRQAPGKGLEWVSAISGSGFTTYYADSVKGRFTISRDNSKNTLYLQMNSLRAEDTAVYYCARVSSGHWDFDYWGQGTLVTVSS VL: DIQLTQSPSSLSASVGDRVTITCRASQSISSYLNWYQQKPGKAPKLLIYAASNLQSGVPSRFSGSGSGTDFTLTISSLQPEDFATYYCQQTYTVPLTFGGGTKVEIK", "Not satisfied"],
  ["Ab12 (antibody, IgG4, V domains shown) VH: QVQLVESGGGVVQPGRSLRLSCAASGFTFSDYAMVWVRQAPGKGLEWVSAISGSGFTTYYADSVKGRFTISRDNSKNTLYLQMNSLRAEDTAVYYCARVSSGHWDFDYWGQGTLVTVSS VL: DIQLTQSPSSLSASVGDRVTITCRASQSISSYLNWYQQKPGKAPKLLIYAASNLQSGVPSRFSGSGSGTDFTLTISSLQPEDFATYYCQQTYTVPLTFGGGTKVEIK", "Not satisfied"],
  ["Ab14 (antibody, V domains shown) VH: EVQLLESGGGLVQPGGSLRLSCAASGFTFSAYAMTWVRQAPGKGLEWVSAISGTGGSTYYADSVKGRFTISRDNSKNTLYLQMNSLRAEDTAVYYCARVSSGHWDFDYWGQGTLVTVSS VL: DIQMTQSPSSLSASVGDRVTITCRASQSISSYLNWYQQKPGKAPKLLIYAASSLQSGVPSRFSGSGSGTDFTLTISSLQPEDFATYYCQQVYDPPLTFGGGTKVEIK", "Not satisfied"],
  ["Ab29 (antibody, IgG4, V domains shown) VH: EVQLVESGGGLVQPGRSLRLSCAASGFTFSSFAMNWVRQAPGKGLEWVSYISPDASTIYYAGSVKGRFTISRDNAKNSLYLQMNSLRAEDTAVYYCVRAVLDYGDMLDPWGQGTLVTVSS VL: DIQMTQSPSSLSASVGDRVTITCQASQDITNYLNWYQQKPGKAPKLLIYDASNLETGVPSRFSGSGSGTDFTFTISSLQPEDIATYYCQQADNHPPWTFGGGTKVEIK", "Satisfied"],
  ["Ab17 (antibody, V domains shown) VH: EVQLLESGGGVVQPGGSLRLSCAASGFTFSSFAMTWVRQAPGKGLEWVSAISGSGAATYFADSVKGRFTISRDNSKNTLYLQMNSLRAEDTAVYYCARVSSGHWDFDYWGQGTLVTVSS VL: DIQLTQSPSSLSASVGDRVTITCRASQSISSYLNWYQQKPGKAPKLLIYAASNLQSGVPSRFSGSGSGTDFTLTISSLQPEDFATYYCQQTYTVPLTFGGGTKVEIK", "Not satisfied"],
  ["Ab18 (antibody, V domains shown) VH: QVQLVESGGGVVQPGRSLRLSCAASGFTFSDYAMVWVRQAPGKGLEWVSAISGSGAATYFADSVKGRFTISRDNSKNTLYLQMNSLRAEDTAVYYCATVSSGHWDFDYWGQGTLVTVSS VL: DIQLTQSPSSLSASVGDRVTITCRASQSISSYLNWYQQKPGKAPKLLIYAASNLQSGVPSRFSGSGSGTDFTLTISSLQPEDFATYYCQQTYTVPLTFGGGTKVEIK", "Not satisfied"],
  ["Ab27 (antibody, V domains shown) VH: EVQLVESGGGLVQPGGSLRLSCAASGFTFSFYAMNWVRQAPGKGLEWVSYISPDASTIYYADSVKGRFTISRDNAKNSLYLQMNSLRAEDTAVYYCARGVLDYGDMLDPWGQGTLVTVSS VL: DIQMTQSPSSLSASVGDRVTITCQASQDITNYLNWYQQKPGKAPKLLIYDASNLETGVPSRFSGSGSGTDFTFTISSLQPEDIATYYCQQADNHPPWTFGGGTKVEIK", "Satisfied"]
]}

Next binder, please.
Decide: pKd of Ab13 (antibody, V domains shown) VH: EVQLLESGGGLVQPGGSLRLSCAASGFTFADYAMTWVRQAPGKGLEWVSAISSFASAIYYADSVKGRFTISRDNSKNTLYLQMNSLRAEDTAVYYCARVSSGHWDFDYWGQGTLVTVSS VL: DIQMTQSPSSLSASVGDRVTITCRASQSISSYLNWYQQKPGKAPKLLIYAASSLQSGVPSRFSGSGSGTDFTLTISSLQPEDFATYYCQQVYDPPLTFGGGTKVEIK >= 9? Not satisfied
